Each record here notes measured pKd.
Target: T1, recombinant human CD73 (SEQ ID NO:70) (human, UniProt P21589 27-549)
T1 construct: Soluble recombinant protein in normal SPR running buffer (open conformation), the soluble enzyme assay and HDX-MS; SPR stock bought from BPS Bioscience; also called rhuCD73; CD73 in the open conformation
T1 sequence: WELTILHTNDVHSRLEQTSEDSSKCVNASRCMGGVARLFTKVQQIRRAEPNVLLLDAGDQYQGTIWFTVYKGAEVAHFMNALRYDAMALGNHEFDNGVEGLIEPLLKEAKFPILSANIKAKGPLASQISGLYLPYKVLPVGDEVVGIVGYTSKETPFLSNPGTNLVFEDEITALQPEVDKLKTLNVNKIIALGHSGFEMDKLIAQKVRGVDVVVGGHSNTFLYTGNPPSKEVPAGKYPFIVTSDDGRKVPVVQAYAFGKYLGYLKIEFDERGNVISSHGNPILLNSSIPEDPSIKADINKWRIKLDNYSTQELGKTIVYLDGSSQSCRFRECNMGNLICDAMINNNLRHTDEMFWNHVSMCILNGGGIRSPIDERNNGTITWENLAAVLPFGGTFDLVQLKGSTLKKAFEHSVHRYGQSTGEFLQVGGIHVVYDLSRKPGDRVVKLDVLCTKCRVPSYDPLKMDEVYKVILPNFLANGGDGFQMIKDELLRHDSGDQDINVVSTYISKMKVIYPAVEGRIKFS
Assay: SPR (Biacore 8K), antibody captured on anti-human Fc, CD73 as analyte, open conformation
// field semantics: pKd = negative decimal log of concentration (mol/L)

[
  {
    "binder": "CL25_hu_11-4 (antibody, V domains shown, Humanized CL25 antibody) VH: QVQLVQSGAEVKKPGASVKVSCKASGYTFTSYGLSWVRQATGQGLEWMGEIYPGSGNTYYNEKFKGRVTMTANTSISTAYMELSSLRSEDTAVYYCARYDYLGSSYGFDYWGAGTTVTVSS VL: DIQMTQSPSSLSASVGDRVTITCKASQDVSTAVAWYQQKPGKAPKLLLYSASYRYSGVPSRFSGSGSGTDYTLTISSLQPEDFATYYCQQHYNTPYTFGGGTKLEIK",
    "data-value": 8.61
  },
  {
    "binder": "CL25_hu_8-6 (antibody, V domains shown, Humanized CL25 antibody) VH: QVQLVQSGAEVKKPGASVKVSCKASGYTFTSYGLSWVRQATGQGLEWMGEIYPGSGNTYYNEKFKGRVTMTRNTSISTAYMELSSLRSEDTAVYYCARYDYLGSSYGFDYWGAGTTVTVSS VL: AIRMTQSPSSFSASTGDRVTITCKASQDVSTAVAWYQQKPGKAPKLLIYSASYRYSGVPSRFSGSGSGTDFTLTISCLQSEDFATYYCQQHYNTPYTFGGGTKLEIK",
    "data-value": 8.81
  },
  {
    "binder": "CL25_hu_9-4 (antibody, V domains shown, Humanized CL25 antibody) VH: QVQLVQSGAEVKKPGSSVKVSCKASGYTFTSYGLSWVRQAPGQGLEWMGEIYPGSGNTYYNEKFKGRVTITADESTSTAYMELSSLRSEDTAVYYCARYDYLGSSYGFDYWGAGTTVTVSS VL: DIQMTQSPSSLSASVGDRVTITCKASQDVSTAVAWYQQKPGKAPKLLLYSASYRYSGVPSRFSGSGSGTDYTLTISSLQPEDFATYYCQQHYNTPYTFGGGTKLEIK",
    "data-value": 8.16
  },
  {
    "binder": "CL25_hu_10-4 (antibody, V domains shown, Humanized CL25 antibody) VH: EVQLVQSGAEVKKPGESLKISCKGSGYTFTSYGLSWVRQMPGKGLEWMGEIYPGSGNTYYNEKFKGQVTISADKSISTAYLQWSSLKASDTAMYYCARYDYLGSSYGFDYWGAGTTVTVSS VL: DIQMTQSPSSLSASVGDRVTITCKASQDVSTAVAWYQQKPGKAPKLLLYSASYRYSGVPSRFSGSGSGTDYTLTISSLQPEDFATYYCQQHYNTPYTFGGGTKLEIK",
    "data-value": 8.92
  },
  {
    "binder": "CL25_hu_11-5 (antibody, V domains shown, Humanized CL25 antibody) VH: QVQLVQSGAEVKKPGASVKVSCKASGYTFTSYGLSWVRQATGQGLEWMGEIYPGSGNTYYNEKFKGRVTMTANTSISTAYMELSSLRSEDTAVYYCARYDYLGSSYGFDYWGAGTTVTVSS VL: DIVMTQSPDSLAVSLGERATINCKASQDVSTAVAWYQQKPGQPPKLLIYSASYRYSGVPDRFSGSGSGTDFTLTISSLQAEDVAVYYCQQHYNTPYTFGGGTKLEIK",
    "data-value": 8.84
  },
  {
    "binder": "CL25_hu_8-5 (antibody, V domains shown, Humanized CL25 antibody) VH: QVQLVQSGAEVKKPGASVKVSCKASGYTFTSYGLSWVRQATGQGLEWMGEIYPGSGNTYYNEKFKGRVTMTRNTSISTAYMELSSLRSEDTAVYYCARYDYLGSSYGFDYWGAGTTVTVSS VL: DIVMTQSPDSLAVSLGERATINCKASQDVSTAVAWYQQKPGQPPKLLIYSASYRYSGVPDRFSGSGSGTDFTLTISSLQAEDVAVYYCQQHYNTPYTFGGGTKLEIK",
    "data-value": 9.14
  },
  {
    "binder": "CL25_hu_10-6 (antibody, V domains shown, Humanized CL25 antibody) VH: EVQLVQSGAEVKKPGESLKISCKGSGYTFTSYGLSWVRQMPGKGLEWMGEIYPGSGNTYYNEKFKGQVTISADKSISTAYLQWSSLKASDTAMYYCARYDYLGSSYGFDYWGAGTTVTVSS VL: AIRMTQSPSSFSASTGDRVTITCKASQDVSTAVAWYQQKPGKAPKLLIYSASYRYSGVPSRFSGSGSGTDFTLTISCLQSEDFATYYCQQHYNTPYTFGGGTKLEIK",
    "data-value": 8.76
  }
]

Here is another binder to look at.
Could you tell me which pKd is on file for CL25_hu_8-4 (antibody, V domains shown, Humanized CL25 antibody; captured by anti-human Fc in SPR) VH: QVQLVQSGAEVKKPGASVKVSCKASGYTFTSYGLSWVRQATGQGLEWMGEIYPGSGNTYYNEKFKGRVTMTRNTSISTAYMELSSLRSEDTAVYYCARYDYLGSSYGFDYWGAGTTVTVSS VL: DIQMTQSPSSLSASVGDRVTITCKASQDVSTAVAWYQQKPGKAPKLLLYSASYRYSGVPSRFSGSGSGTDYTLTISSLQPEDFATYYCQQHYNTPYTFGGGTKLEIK ?
8.64
